# credit: patent US20240301031A1

- System under test: T1, human BAFF (10056-HNCH, Sino biological) (human, UniProt Q9Y275 134-285)
- T1 construct: Bought protein
- Assay procedure: competition ELISA: biotin-labeled BAFF to coated BAFF-R
- Description: The blocking activity of the antibodies and the fusion proteins for receptors and ligands such as BAFF/BAFF-R, BAFF/BCMA, BAFF/TACI, APRIL/BCMA, APRIL/TACI, and p40/IL-12R1 was assayed by the ELISA method. The specific procedures were as follows: A receptor protein was diluted to 2 μg/mL with PBS at pH 7.4 (BasalMedia, B320) and added to a 96-well microplate (Corning, 3590) at 100 μL/well. The plate was incubated at 4° C. overnight. […]
pIC50: −log10 of the molar value.
# pIC50 per record follows

# Binder, pIC50
records = [
    ("TACI-13 Fc (Fc fusion, Fused directly to Fc; two identical polypeptides) SLSCRKEQGKFYDHLLRDCISCASICGQHPKQCAYFCDKTHTCPPCPAPEAEGAPSVFLFPPKPKDTLMISRTPEVTCVVVDVSHEDPEVKFNWYVDGVEVHNAKTKPREEQYNSTYRVVSVLTVLHQDWLNGKEYKCKVSNKALPSSIEKTISKAKGQPREPQVYTLPPSRDELTKNQVSLTCLVKGFYPSDIAVEWESNGQPENNYKTTPPVLDSDGSFFLYSKLTVDKSRWQQGNVFSCSVMHEALHNHYTQKSLSLSPGK", 7.52),
    ("TACI-14 Fc (Fc fusion, Fused directly to Fc; two identical polypeptides) SLSCRKEQGKFYDHLLRDCISCASICGQHPKQCAYFDKTHTCPPCPAPEAEGAPSVFLFPPKPKDTLMISRTPEVTCVVVDVSHEDPEVKFNWYVDGVEVHNAKTKPREEQYNSTYRVVSVLTVLHQDWLNGKEYKCKVSNKALPSSIEKTISKAKGQPREPQVYTLPPSRDELTKNQVSLTCLVKGFYPSDIAVEWESNGQPENNYKTTPPVLDSDGSFFLYSKLTVDKSRWQQGNVFSCSVMHEALHNHYTQKSLSLSPGK", 6.11),
    ("TACI-11 Fc (Fc fusion, TACI-9 truncated at the C-terminus by 2 amino acids KL, fused directly to Fc; two identical polypeptides) SLSCRKEQGKFYDHLLRDCISCASICGQHPKQCAYFCENDKTHTCPPCPAPEAEGAPSVFLFPPKPKDTLMISRTPEVTCVVVDVSHEDPEVKFNWYVDGVEVHNAKTKPREEQYNSTYRVVSVLTVLHQDWLNGKEYKCKVSNKALPSSIEKTISKAKGQPREPQVYTLPPSRDELTKNQVSLTCLVKGFYPSDIAVEWESNGQPENNYKTTPPVLDSDGSFFLYSKLTVDKSRWQQGNVFSCSVMHEALHNHYTQKSLSLSPGK", 8.58),
    ("TACI-9 Fc (Fc fusion, TACI positions 68-108, no mutation, fused directly to Fc; two identical polypeptides) SLSCRKEQGKFYDHLLRDCISCASICGQHPKQCAYFCENKLDKTHTCPPCPAPEAEGAPSVFLFPPKPKDTLMISRTPEVTCVVVDVSHEDPEVKFNWYVDGVEVHNAKTKPREEQYNSTYRVVSVLTVLHQDWLNGKEYKCKVSNKALPSSIEKTISKAKGQPREPQVYTLPPSRDELTKNQVSLTCLVKGFYPSDIAVEWESNGQPENNYKTTPPVLDSDGSFFLYSKLTVDKSRWQQGNVFSCSVMHEALHNHYTQKSLSLSPGK", 8.68),
    ("TACI-12 Fc (Fc fusion, TACI-9 truncated at the C-terminus by 3 amino acids NKL, fused directly to Fc; two identical polypeptides) SLSCRKEQGKFYDHLLRDCISCASICGQHPKQCAYFCEDKTHTCPPCPAPEAEGAPSVFLFPPKPKDTLMISRTPEVTCVVVDVSHEDPEVKFNWYVDGVEVHNAKTKPREEQYNSTYRVVSVLTVLHQDWLNGKEYKCKVSNKALPSSIEKTISKAKGQPREPQVYTLPPSRDELTKNQVSLTCLVKGFYPSDIAVEWESNGQPENNYKTTPPVLDSDGSFFLYSKLTVDKSRWQQGNVFSCSVMHEALHNHYTQKSLSLSPGK", 8.41),
    ("TACI-10 Fc (Fc fusion, TACI-9 truncated at the C-terminus by 1 amino acid L, fused directly to Fc; two identical polypeptides) SLSCRKEQGKFYDHLLRDCISCASICGQHPKQCAYFCENKDKTHTCPPCPAPEAEGAPSVFLFPPKPKDTLMISRTPEVTCVVVDVSHEDPEVKFNWYVDGVEVHNAKTKPREEQYNSTYRVVSVLTVLHQDWLNGKEYKCKVSNKALPSSIEKTISKAKGQPREPQVYTLPPSRDELTKNQVSLTCLVKGFYPSDIAVEWESNGQPENNYKTTPPVLDSDGSFFLYSKLTVDKSRWQQGNVFSCSVMHEALHNHYTQKSLSLSPGK", 8.57),
]
